Values were extracted from ChEMBL document CHEMBL5543120.

# Assay remarks: in vivo
# Applied conditions: rat, iv, 3 mg/kg
Result type: AUC(0-t) (ng·h/mL)

P. CN(C)C/C=C/C(=O)Nc1ccc2ncnc(Nc3ccc(OCc4ccccn4)c(Cl)c3)c2c1-c1ccccc1
Q. CN1CCC[C@@H]1/C=C/C(=O)Nc1ccc2ncnc3c2c1CCN3c1ccc(OCc2ccccn2)c(Cl)c1
QUERY: Which record shows the lower AUC(0-t): the first, P , or the second, Q ? Selection: enter the item's label.
RESULT: Q
(Q: 667 ng·h/mL, P: 1290 ng·h/mL)

====

# Assay remarks: in vivo
# Applied conditions: rat, po, 10 mg/kg
Result type: AUC(0-t) (ng·h/mL)

a. CN(C)C/C=C/C(=O)Nc1ccc2ncnc(Nc3ccc(OCc4ccccn4)c(Cl)c3)c2c1-c1ccccc1
b. CN1CCC[C@@H]1/C=C/C(=O)Nc1ccc2ncnc3c2c1CCN3c1ccc(OCc2ccccn2)c(Cl)c1
QUERY: Identify the entry with the smaller AUC(0-t): a or b . Please reply using the label of the selected record.
RESULT: b
(b: 157 ng·h/mL, a: 1300 ng·h/mL)

====

# Assay remarks: in vivo
# Applied conditions: rat, po, 10 mg/kg
Result type: half-life (h)

P. CN1CCC[C@@H]1/C=C/C(=O)Nc1ccc2ncnc3c2c1CCN3c1ccc(OCc2ccccn2)c(Cl)c1
Q. CN(C)C/C=C/C(=O)Nc1ccc2ncnc(Nc3ccc(OCc4ccccn4)c(Cl)c3)c2c1-c1ccccc1
QUERY: Endpoint returns the identifier whose half-life is numerically larger, either P or Q . Bench note: the answer is the label of the chosen record.
RESULT: P

====

# Assay remarks: in vivo
# Applied conditions: rat, iv, 3 mg/kg
Result type: clearance (mL/min/kg)

CN(C)C/C=C/C(=O)Nc1ccc2ncnc(Nc3ccc(OCc4ccccn4)c(Cl)c3)c2c1-c1ccccc1
38.4

a. CN1CCC[C@@H]1/C=C/C(=O)Nc1ccc2ncnc3c2c1CCN3c1ccc(OCc2ccccn2)c(Cl)c1
b. CCOc1cc2ncc(C#N)c(Nc3ccc(OCc4ccccn4)c(Cl)c3)c2cc1NC(=O)/C=C/CN(C)C
QUERY: Which numeric clearance is bigger, that of a or that of b ? The response must carry the label of the picked entry.
RESULT: a

====

# Assay remarks: in vivo
# Applied conditions: rat, po, 10 mg/kg
Result type: Cmax (ng/mL)

P. CN(C)C/C=C/C(=O)Nc1ccc2ncnc(Nc3ccc(OCc4ccccn4)c(Cl)c3)c2c1-c1ccccc1
Q. CN1CCC[C@@H]1/C=C/C(=O)Nc1ccc2ncnc3c2c1CCN3c1ccc(OCc2ccccn2)c(Cl)c1
QUERY: Problem: Given the entries P and Q , determine which has the lower reported Cmax. Indicate your choice by writing its label.
RESULT: Q
(Q: 23.8 ng/mL, P: 124 ng/mL)

====

# Assay remarks: in vivo
# Applied conditions: rat, iv, 3 mg/kg
Result type: half-life (h)

CN(C)C/C=C/C(=O)Nc1ccc2ncnc(Nc3ccc(OCc4ccccn4)c(Cl)c3)c2c1-c1ccccc1
3.81
CN1CCC[C@@H]1/C=C/C(=O)Nc1ccc2ncnc3c2c1CCN3c1ccc(OCc2ccccn2)c(Cl)c1
4.88

====

# Assay remarks: in vivo
# Applied conditions: rat, po, 10 mg/kg
Result type: Tmax (h)

a. CN1CCC[C@@H]1/C=C/C(=O)Nc1ccc2ncnc3c2c1CCN3c1ccc(OCc2ccccn2)c(Cl)c1
b. CN(C)C/C=C/C(=O)Nc1ccc2ncnc(Nc3ccc(OCc4ccccn4)c(Cl)c3)c2c1-c1ccccc1
QUERY: Lower value for measured Tmax? Options: a , b Answer by stating the label of the chosen item.
RESULT: a
(a: 0.5 h, b: 3.67 h)
